The measured values listed here are drawn from ChEMBL document CHEMBL4619808.

# System: Staphylococcus aureus
# EXPERIMENT SUMMARY: Microbicidal activity against Staphylococcus aureus ATCC 6538 assessed as inhibition of colony growth incubated for 24 hrs followed by replating and further incubated for 24 hrs
# Assay type: functional
# CONDITION: ATCC 6538, 24 h
Reported MBC values follow for various compounds
Just the number please, in µM, no unit attached.

// solved cases for MBC follow
- COMPOUND: "CC(=O)N[C@@H](CCCNC(=N)N)c1nc(C)sc1C(=O)N[C@@H](C)c1nc(C)sc1C(=O)N[C@@H](C)c1nc(C)sc1C(=O)N[C@@H](CCCNC(=N)N)c1nc(C)sc1C(=O)N[C@@H](C)c1nc(C)sc1C(=O)N[C@@H](C)c1nc(C)sc1C(=O)N[C@@H](CCCNC(=N)N)c1nc(C)sc1C(=O)N[C@@H](C)c1nc(C)sc1C(=O)N[C@@H](C)c1nc(C)sc1C(=O)N[C@@H](CCCNC(=N)N)c1nc(C)sc1C(=O)N[C@@H](C)c1nc(C)sc1C(=O)N[C@@H](C)c1nc(C)sc1C(N)=O"
  RESULT UNIT: "µM"
  MBC: 8.3
- COMPOUND: "CC(=O)N[C@@H](CCCNC(=N)N)c1nc(C)sc1C(=O)N[C@@H](C)c1nc(CCCNC(=N)N)sc1C(=O)N[C@@H](C)c1nc(C)sc1C(=O)N[C@@H](CCCNC(=N)N)c1nc(C)sc1C(=O)N[C@@H](C)c1nc(CCCNC(=N)N)sc1C(=O)N[C@@H](C)c1nc(C)sc1C(=O)N[C@@H](CCCNC(=N)N)c1nc(C)sc1C(=O)N[C@@H](C)c1nc(CCCNC(=N)N)sc1C(=O)N[C@@H](C)c1nc(C)sc1C(=O)N[C@@H](CCCNC(=N)N)c1nc(C)sc1C(=O)N[C@@H](C)c1nc(CCCNC(=N)N)sc1C(=O)N[C@@H](C)c1nc(C)sc1C(N)=O"
  RESULT UNIT: "µM"
  MBC: 7.8
- COMPOUND: "CC(=O)N[C@@H](CCCNC(=N)N)c1nc(C)sc1C(=O)N[C@@H](C)c1nc(CCCNC(=N)N)sc1C(=O)N[C@@H](C)c1nc(C)sc1C(=O)N[C@@H](CCCNC(=N)N)c1nc(C)sc1C(=O)N[C@@H](C)c1nc(CCCNC(=N)N)sc1C(=O)N[C@@H](C)c1nc(C)sc1C(=O)N[C@@H](CCCNC(=N)N)c1nc(C)sc1C(=O)N[C@@H](C)c1nc(CCCNC(=N)N)sc1C(=O)N[C@@H](C)c1nc(C)sc1C(N)=O"
  RESULT UNIT: "µM"
  MBC: 16.5
- COMPOUND: "CC(=O)N[C@@H](CCCCN)c1nc(C)sc1C(=O)N[C@@H](C)c1nc(CCCCN)sc1C(=O)N[C@@H](C)c1nc(C)sc1C(=O)N[C@@H](CCCCN)c1nc(C)sc1C(=O)N[C@@H](C)c1nc(CCCCN)sc1C(=O)N[C@@H](C)c1nc(C)sc1C(=O)N[C@@H](CCCCN)c1nc(C)sc1C(=O)N[C@@H](C)c1nc(CCCCN)sc1C(=O)N[C@@H](C)c1nc(C)sc1C(=O)N[C@@H](CCCCN)c1nc(C)sc1C(=O)N[C@@H](C)c1nc(CCCCN)sc1C(=O)N[C@@H](C)c1nc(C)sc1C(N)=O"
  RESULT UNIT: "µM"
  MBC: 57

Kindly consider the entry below.
Input line: Please look up its MBC: `CC(=O)N[C@@H](CCCCN)c1nc(C)sc1C(=O)N[C@@H](CC(C)C)c1nc(CCCCN)sc1C(=O)N[C@@H](C)c1nc(CC(C)C)sc1C(=O)N[C@@H](CCCCN)c1nc(C)sc1C(=O)N[C@@H](CC(C)C)c1nc(CCCCN)sc1C(=O)N[C@@H](C)c1nc(CC(C)C)sc1C(=O)N[C@@H](CCCCN)c1nc(C)sc1C(=O)N[C@@H](CC(C)C)c1nc(CCCCN)sc1C(=O)N[C@@H](C)c1nc(CC(C)C)sc1C(=O)N[C@@H](CCCCN)c1nc(C)sc1C(=O)N[C@@H](CC(C)C)c1nc(CCCCN)sc1C(=O)N[C@@H](C)c1nc(CC(C)C)sc1C(N)=O`
Output line: 25
